Numbers sourced from the AptaBench aptamer set (doi:10.1093/nar/gkaf219).

Tested on: DNA aptamer or structured DNA CTTACGACCGACTTTTGGGTGTTCTGGGTGGGATGTGGGTCGTAAG
condition-parameters: 10 mM Tris-HCl, pH 7.4
measured-quantity: binding call; also: call rule not given here

# annotated cases, reported binding call shown
[
  {
    "compound": "CCCC(C(=O)c1ccc2c(c1)OCO2)N1CCCC1 (configuration not stated)",
    "assay-system": "DNA aptamer or structured DNA CTTACGACCGACTTTTGGGTGTTCTGGGTGGGATGTGGGTCGTAAG",
    "binding call": "no binding"
  },
  {
    "compound": "C=C[C@H]1CN2CC[C@@H]1C[C@H]2[C@H](O)c1ccnc2ccc(OC)cc12",
    "assay-system": "DNA aptamer or structured DNA CTTACGACCGACTTTTGGGTGTTCTGGGTGGGATGTGGGTCGTAAG",
    "binding call": "no binding"
  },
  {
    "compound": "CCN(CC)CCOC(=O)c1ccc(N)cc1",
    "assay-system": "DNA aptamer or structured DNA CTTACGACCGACTTTTGGGTGTTCTGGGTGGGATGTGGGTCGTAAG",
    "binding call": "no binding"
  },
  {
    "compound": "CNC(C)Cc1ccc2c(c1)OCO2 (configuration not stated)",
    "assay-system": "DNA aptamer or structured DNA CTTACGACCGACTTTTGGGTGTTCTGGGTGGGATGTGGGTCGTAAG",
    "binding call": "no binding"
  },
  {
    "compound": "NCCc1ccc(O)c(O)c1",
    "assay-system": "DNA aptamer or structured DNA CTTACGACCGACTTTTGGGTGTTCTGGGTGGGATGTGGGTCGTAAG",
    "binding call": "no binding"
  }
]

# batch size: 7; output binding call per entry
1. OCC1OC(OC2C(CO)OC(O)C(O)C2O)C(O)C(O)C1O (configuration not stated)
2. c1ccc([C@H]2CN3CCSC3=N2)cc1
3. CN[C@@H](C)Cc1ccccc1
4. CN(C)CCOC(c1ccccc1)c1ccccc1
5. CC(=O)Oc1ccc2c3c1O[C@H]1[C@@H](OC(C)=O)C=C[C@H]4[C@@H](C2)N(C)CC[C@@]341
6. Cc1nnc2n1-c1ccc(Cl)cc1C(c1ccccc1)=NC2
7. NCCc1c[nH]c2ccc(O)cc12

Solution:
["no binding", "no binding", "no binding", "no binding", "no binding", "no binding", "no binding"]

---

System: DNA aptamer or structured DNA GGGACGACCCGTAGGGGTACACGCTCTATAGGGGCTGGGTCGTCCC
condition-parameters: 10 mM Tris-HCl, pH 7.4
measured-quantity: pKd
Answers are plain numbers, as −log10 of the molar value.

Exercise: Annotate the compound "COc1ccc2c3c1O[C@H]1C(=O)CC[C@@]4(O)[C@@H](C2)N(C)CC[C@]314" with its measured pKd.
Solution: 6.39

---

Test system: DNA aptamer or structured DNA GGGACGACATGGGATGGAGCTATGCGAGCATGTGGTGTGTCGTCCC
condition-parameters: 10 mM Tris-HCl, pH 7.4
measured-quantity: Kd (µM)
Give bare numbers, in µM.

Exercise: Please report Kd for the following compound: "COc1ccc2c3c1O[C@H]1C(=O)CC[C@@]4(O)[C@@H](C2)N(C)CC[C@]314"
Solution: 3.19

---

Tested on: DNA aptamer or structured DNA TTCAAATCTATGGTGCAGTGCGCAGGGACGGAGGTAAAACATGAGTTTTAGTCTAGATTTGAA
condition-parameters: 10 mM Tris-HCl, pH 7.4
measured-quantity: binding call; also: call rule not given here

Reference set, count: 5
[
  {
    "compound": "COC(=O)C(c1ccccc1)C1CCCCN1 (stereo not drawn)",
    "value-measured": "no binding"
  },
  {
    "compound": "NCCc1c[nH]c2ccc(O)cc12",
    "value-measured": "binds"
  },
  {
    "compound": "CCN(CC)CCOC(=O)c1ccc(N)cc1",
    "value-measured": "binds"
  },
  {
    "compound": "NCC(O)c1ccc(O)c(O)c1 (stereo not drawn)",
    "value-measured": "binds"
  },
  {
    "compound": "CN1CC[C@]23c4c5ccc(O)c4O[C@H]2[C@@H](O)C=C[C@H]3[C@H]1C5",
    "value-measured": "no binding"
  }
]

Each compound below has a reported value. Please supply its binding call.
1. CNC[C@H](O)c1ccc(O)c(O)c1
2. COc1cc(CC(=O)O)ccc1O
3. O=C(O)Cc1ccc(O)c(O)c1

Solution:
no binding
no binding
no binding

---

Test system: DNA aptamer or structured DNA GGGACGACGGGGATTCGGTTCGTCATTTGGCAGTGCCTCGTCTGTCGTCCC
condition-parameters: 10 mM Tris-HCl, pH 7.4
measured-quantity: Kd

Exercise: Please give the documented Kd of "CN1CC[C@]23c4c5ccc(O)c4O[C@H]2[C@@H](O)C=C[C@H]3[C@H]1C5"
Solution: 9.3 µM

---

Tested on: DNA aptamer or structured DNA GGGACGACTAGTGCCTTCGTGTTGTTCGGGAATCCGGTTCTGTCGTCCC
condition-parameters: 10 mM Tris-HCl, pH 7.4
measured-quantity: Kd (nM)
Numbers only, in nM.

Exercise: Report the value of Kd obtained on DNA aptamer or structured DNA GGGACGACTAGTGCCTTCGTGTTGTTCGGGAATCCGGTTCTGTCGTCCC for "CN1CC[C@]23c4c5ccc(O)c4O[C@H]2[C@@H](O)C=C[C@H]3[C@H]1C5" .
Solution: 1900

---

Tested on: DNA aptamer or structured DNA GGGACGACCGTCCGAGTTTTAGGAGTGGTTGCATTGCGCTGGGAAGAGGTCGTCCC
condition-parameters: 10 mM Tris-HCl, pH 7.4
measured-quantity: Kd
# number then unit; no other words

Exercise: Give Kd for the following compound: "CN[C@@H](C)Cc1ccccc1"
Solution: 4.9 µM

---

Test system: DNA aptamer or structured DNA GGGACGACGGAGGTTTAGGGTTTAGGTAGTGGGTTGAAGTCGTCCC
condition-parameters: 10 mM Tris-HCl, pH 7.4
measured-quantity: Kd

Exercise: State, in one line, measured Kd of "CC(C)[C@H](NC(=O)c1nn(Cc2ccc(F)cc2)c2ccccc12)C(N)=O"
Solution: 54 nM

---

System: DNA aptamer or structured DNA GGGACGACAGGGATTCGGTCTTGGTACATAGGGGCCTCGTCTGTCGTCCC
condition-parameters: 10 mM Tris-HCl, pH 7.4
measured-quantity: pKd
Give bare numbers, as −log10 of the molar value.

Exercise: # return pKd of "CN1CC[C@]23c4c5ccc(O)c4O[C@H]2[C@@H](O)C=C[C@H]3[C@H]1C5" (system: DNA aptamer or structured DNA GGGACGACAGGGATTCGGTCTTGGTACATAGGGGCCTCGTCTGTCGTCCC)
Solution: 5.96

---

Tested on: DNA aptamer or structured DNA GGGACGACACGTGTGGCTGGTAGGGTAGGTCTTGTCGCGTCGTCCC
condition-parameters: 10 mM Tris-HCl, pH 7.4
measured-quantity: binding call; also: call rule not given here

[
  {
    "compound": "CCC(=O)C(CC(C)N(C)C)(c1ccccc1)c1ccccc1 (stereo not given)",
    "binding call": "binds"
  },
  {
    "compound": "CC(=O)Oc1ccc2c3c1O[C@H]1[C@@H](OC(C)=O)C=C[C@H]4[C@@H](C2)N(C)CC[C@@]341",
    "binding call": "no binding"
  },
  {
    "compound": "CCN(CC)CCOC(=O)c1ccc(N)cc1",
    "binding call": "binds"
  },
  {
    "compound": "CN[C@@H](C)Cc1ccccc1",
    "binding call": "no binding"
  },
  {
    "compound": "CCN(CC)CC(=O)Nc1c(C)cccc1C",
    "binding call": "no binding"
  }
]

Need binding call for each of these compounds.
1. CCN(CC)C(=O)[C@@H]1C=C2c3cccc4[nH]cc(c34)C[C@H]2N(C)C1
2. COC(=O)[C@@H]1C2CCC(C[C@@H]1OC(=O)c1ccccc1)N2C (stereo not given in full)
3. CC(N)Cc1ccccc1 (stereo not given)
4. CN(C)CCOC(c1ccccc1)c1ccccc1

Solution:
binds
binds
binds
binds

Provide each entry's binding call from the list below.
1. CNC(C)Cc1ccc2c(c1)OCO2 (stereo not given)
2. COc1ccc2c3c1O[C@H]1C(=O)CC[C@@]4(O)[C@@H](C2)N(C)CC[C@]314
3. C=C[C@H]1CN2CC[C@@H]1C[C@H]2[C@H](O)c1ccnc2ccc(OC)cc12
4. C[C@]12CC[C@H](OS(=O)(=O)O)CC1=CC[C@@H]1[C@@H]2CC[C@]2(C)C(=O)CC[C@@H]12
5. CNS(=O)(=O)Cc1ccc2[nH]cc(CCN(C)C)c2c1
6. NCCc1c[nH]c2ccc(O)cc12

Solution:
1. binds
2. binds
3. binds
4. binds
5. binds
6. no binding
